Reference source: paper PMC4448975

target: ADA in mouse erythrocytes (Mus musculus, UniProt P03958)
Sequence (P03958 whole entry): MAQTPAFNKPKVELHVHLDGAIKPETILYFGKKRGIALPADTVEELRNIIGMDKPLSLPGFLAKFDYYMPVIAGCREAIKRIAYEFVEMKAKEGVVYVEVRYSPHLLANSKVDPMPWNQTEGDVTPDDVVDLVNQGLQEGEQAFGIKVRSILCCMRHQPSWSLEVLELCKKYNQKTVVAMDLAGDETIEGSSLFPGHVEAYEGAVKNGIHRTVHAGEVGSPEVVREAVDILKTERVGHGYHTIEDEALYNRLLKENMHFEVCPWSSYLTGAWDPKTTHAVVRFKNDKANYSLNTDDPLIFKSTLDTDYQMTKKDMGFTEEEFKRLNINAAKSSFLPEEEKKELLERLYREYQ
protocol-summary: Inhibition of ADA-catalyzed deamination in mouse erythrocytes
Format: biochemical
run-parameters: Ki, mouse erythrocytes, substrate cordycepin, Dixon plot
observed-property: Ki (µM)
Give your result in µM as a bare value.

Qu. Please supply the value of reported Ki for the item C[C@@H]1O[C@@H](O[C@H]2[C@H](Oc3cc(O)c4c(c3)O[C@H](c3ccc(O)cc3)CC4=O)O[C@H](CO)[C@@H](O)[C@@H]2O)[C@H](O)[C@H](O)[C@H]1O [Naringin, naringin]
Ans. 58.8

----------
target: ADA in human erythrocytes (Homo sapiens, UniProt P00813)
Sequence (P00813 whole entry): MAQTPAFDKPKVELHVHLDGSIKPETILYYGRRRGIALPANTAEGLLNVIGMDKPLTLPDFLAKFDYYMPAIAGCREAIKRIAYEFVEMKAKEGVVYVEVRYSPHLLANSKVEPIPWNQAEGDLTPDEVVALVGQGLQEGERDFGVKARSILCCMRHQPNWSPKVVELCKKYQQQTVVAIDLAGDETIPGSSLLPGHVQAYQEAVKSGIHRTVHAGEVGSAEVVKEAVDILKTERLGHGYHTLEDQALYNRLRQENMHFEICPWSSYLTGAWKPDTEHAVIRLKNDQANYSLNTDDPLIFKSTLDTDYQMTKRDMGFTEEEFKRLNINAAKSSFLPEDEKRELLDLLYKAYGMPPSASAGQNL
protocol-summary: Inhibition of ADA-catalyzed deamination of cordycepin in human erythrocytes
observed-property: Ki (µM)
Numbers only here, please. The scale is µM.

Qu. Return value of Ki for input `C[C@@H]1O[C@@H](O[C@H]2[C@H](Oc3cc(O)c4c(c3)O[C@H](c3ccc(O)cc3)CC4=O)O[C@H](CO)[C@@H](O)[C@@H]2O)[C@H](O)[C@H](O)[C@H]1O` , no commentary.
Ans. 168
